The reported numbers originate from ChEMBL document CHEMBL1137622.

- ASSAY METHOD TEXT: Clearance in rat at 2 mg/kg, iv
- Assay type: ADME, organism-based
- Parameters: dose 2 mg/kg, route intravenous
- MEASUREMENT PARAMETERS: in vivo
PROPERTY MEASURED: clearance (mL/min/kg)
Use mL/min/kg as the unit, but write only the number.

Note to self: clearance recorded for `CCOC(=O)c1cn2c(c1O)C(=O)N(Cc1ccc(Cl)c(Cl)c1)CC2` was 30

---

Provide the recorded IC50 for the entries that follow.
- TESTED TARGET: Human immunodeficiency virus type 1 integrase (Human immunodeficiency virus 1)
- Sequence (Q7ZJM1 whole entry): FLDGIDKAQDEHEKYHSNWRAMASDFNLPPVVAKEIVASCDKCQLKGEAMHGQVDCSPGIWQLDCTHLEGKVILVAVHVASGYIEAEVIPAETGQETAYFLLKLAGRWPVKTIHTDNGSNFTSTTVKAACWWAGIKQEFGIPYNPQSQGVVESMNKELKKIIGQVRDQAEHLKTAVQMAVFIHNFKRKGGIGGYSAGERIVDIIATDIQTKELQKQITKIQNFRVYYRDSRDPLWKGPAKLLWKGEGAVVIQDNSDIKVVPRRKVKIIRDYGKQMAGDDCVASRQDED
- ASSAY METHOD TEXT: Inhibition of recombinant HIV1 integrase strand transfer activity

Note to self: IC50 recorded for `CCOC(=O)c1cn2c(c1O)C(=O)N(Cc1ccc(F)cc1)CCC2` was > 5000 nM

Note to self: IC50 recorded for `CN1CCc2c(c(O)c3n2CCN(Cc2ccc(F)cc2)C3=O)C1=O` was < 10 nM

Note to self: IC50 recorded for `CN1CCn2c3c(c(O)c2C1=O)C(=O)N(Cc1ccc(F)cc1)CC3` was < 10 nM

Note to self: IC50 recorded for `O=C1c2c(O)c3n(c2CCN1Cc1ccc(F)cc1)CCN(Cc1ccc(F)cc1)C3=O` was < 10 nM
